- Target system: human A3 receptors (Homo sapiens)
- Construct: expressed in transfected cells; host or cells: HEK-293 cells, stably transfected; membrane preparation
- Sequence (P0DMS8 whole entry): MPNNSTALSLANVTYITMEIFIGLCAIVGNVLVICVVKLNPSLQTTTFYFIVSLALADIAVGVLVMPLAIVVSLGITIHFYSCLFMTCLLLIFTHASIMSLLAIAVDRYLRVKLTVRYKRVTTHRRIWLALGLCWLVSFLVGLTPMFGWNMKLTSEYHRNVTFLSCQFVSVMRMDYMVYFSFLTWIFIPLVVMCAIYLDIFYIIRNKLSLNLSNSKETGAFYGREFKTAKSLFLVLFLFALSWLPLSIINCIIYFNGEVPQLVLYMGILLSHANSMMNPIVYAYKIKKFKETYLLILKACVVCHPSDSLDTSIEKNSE
- Method notes: Adenosine receptor binding assay ([3H]HEMADO competition)
- Particulars: Table 2, membranes of HEK-293 cells expressing human A3 receptor, Cheng-Prusoff, read-out: hA3 Ki
Entries annotated with measured Ki
Give the number; nM is assumed, so skip it.

Molecule	Ki [nM]
Cc1cc2c(Cl)nc3c(ncn3[C@H]3[C@H](O)[C@H](O)[C@]4(C(N)=O)C[C@H]34)c2[nH]1 [25A*]	24.2
CCOc1nc2c(ncn2[C@H]2[C@H](O)[C@H](O)C3C[C@@H]32)c2[nH]c(C)cc12 (stereo partly shown) [21A*]	36
O[C@H]1[C@H](n2cnc3c4[nH]c(Cc5ccccc5)cc4c(Cl)nc32)[C@H]2CC2[C@H]1O (stereo partly shown)	5.34

Next up:
Query string: Name the recorded Ki for CNC(=O)[C@@]12C[C@@H]1[C@@H](n1cnc3c4c(c(Cl)nc31)CCC(C)N4)[C@H](O)[C@@H]2O (stereo partly shown) [10A*] .
Result string: 2
